- Protocol Description: folding stability dG unfold from chymotrypsin proteolysis; higher = more stable
Exercise: state measured folding stability dG unfold for each of the sequences provided.
Answer in kcal/mol, number only, no unit symbol.

Query: I am curious: what folding stability dG unfold value has been reported for SAGGSAGGSMKIKVEVEMEKVKDPKKKGEYIYKMKIKKVEIELSEEEKEKLKELAEKLGIEVESAGGSAGGS [r12_249_TrROS_Hall] ?
Reply: 2.35

Query: What measured folding stability dG unfold goes with SAGGSAGGSAGGGRMLLTETETIFSPSGGESVVTRLVTVFRPPPPVFLPDPEGRWSELVSAGGSAGGSAGGS [r10_330_JUSTAS] ?
Reply: 0.769

Query: So what's the measured folding stability dG unfold for this one? SAGMKIKIVKIEKEEDGTIRVELEITDPNGNKYRVEAEIDLKDPNKIKIKVINEDTGEEFEIELTIKKPSAG [r5_345_TrROS_Hall]
Reply: 5.19

Query: For the sequence SAGGSAGGSKKRTILIQFPNGSPEEAVDNIKNWLRALGNEPIPLEDVKIQWYPGNPGYFQIEISAGGSAGGS [r12_122_TrROS] , what folding stability dG unfold is on record?
Reply: 2.94

###

- Protocol Description: folding stability dG unfold (combined trypsin and chymotrypsin); higher = more stable
Classification field: enter YES for folding stability dG unfold values not below 2 kcal/mol, NO for values below it.

Query: Does the sequence SAGGSAGGSAGGMTPEEIEALKARPLPDGSPILSIDREGNVYTITTARDPSVRTTVIPAESAGGSAGGSAGG [r7_995_JUSTAS] have recorded folding stability dG unfold that is 2 kcal/mol or more?
Reply: NO

Query: Please indicate if the recorded folding stability dG unfold for SWTFPILIRFPFDDPEDLDKAREMAEDLVRYLAEEFGWPVKIDKVKYERNPENGWVWIRAEITVTPPDDVSA [r9_105_TrROS] meets or exceeds 2 kcal/mol.
Reply: YES

Query: Please check the record SAGGSAGGSAGGGSTTTTTETYPENGLIFTTTTTVFDDGSLSVTTTTSPLPLPPSPFIATSAGGSAGGSAGG [r7_103_JUSTAS] and state if its folding stability dG unfold is at or above 2 kcal/mol.
Reply: NO

Query: API: above_or_equal(metric=folding stability dG unfold, cutoff=2 kcal/mol) for item SAGSSMSVTIKVTIRSPTRTEEIEITVSPSESLEEAIKKVAEKLPPDYSITITFEGGETVTIPIPKELLSAG [r5_77_JUSTAS]
Reply: NO

Query: Form field: folding stability dG unfold at least 2 kcal/mol? Entry: SAGGSAGGSPSVLDQVKRMIQDRIQERFGLPPGYTVQVTIDVEIDDGGIRIKKIKAEIQPPDNSAGGSAGGS [r12_481_TrROS]
Reply: YES

Query: folding stability dG unfold >= 2 kcal/mol for SAGGSAGGSAGGMKLDVTIVGDGKVTTLPADSLEDVEETLKKLGLTLKSVDPATGTVTVASAGGSAGGSAGG [r7_726_JUSTAS] ?
Reply: NO

Query: Decide: is the reported value of folding stability dG unfold for SAGMEIEITGPNLEELAEKVAKELKEKNWSPPVTITLKEPGGKTVLKVTVEFNPPNPNEIKVTKEKVESAGG [r19_85_JUSTAS] equal to or greater than 2 kcal/mol?
Reply: NO

###

- Protocol Description: folding stability dG unfold from chymotrypsin proteolysis; higher = more stable
Note to self: values exactly at 1 kcal/mol are MET. So folding stability dG unfold at or above 1 kcal/mol is MET, below is NOT MET.

Query: Would you say SAGGPSHPLGPVALTLDPAASTLTVTLGDEVLTLPVPPGVTATATSYPDSVTVTLTFPDGTVVTVTLPLSAG [r5_21_JUSTAS] shows folding stability dG unfold at minimum 1 kcal/mol?
Reply: MET

Query: Does the sequence SAGGSWVIIIQITIRNPGEERKITIPMEEIQGMPLEQIADNLRKLPGIGDVTIEIQEFPPPKPNDPSAGGSA [r2_282_TrROS] have recorded folding stability dG unfold that is 1 kcal/mol or more?
Reply: MET

Query: Decide: is the reported value of folding stability dG unfold for SAGGAVVTPETEGDRTFVTTTDPESGSRTVTVTTYDPTTNTATTTTYFVPPDGVPTRVATTTTPLPPTSAGG [r13_768_JUSTAS] equal to or greater than 1 kcal/mol?
Reply: MET

Query: Decide: is the reported value of folding stability dG unfold for SAGGSAMLTLLYRVPPGDPLAHAREIAEALEERFGAKVRILDVKVERDPVTREVYIPVVVELELPESAGGSA [r15_70_TrMRF] equal to or greater than 1 kcal/mol?
Reply: MET

Query: Would you say SAGGSAGGSAGGKPGEKKRYRFPAPKFELVSKVKVRVKVLNEDTNELYEKEVEVFVLKLTSAGGSAGGSAGG [r7_64_TrROS_Hall] shows folding stability dG unfold at minimum 1 kcal/mol?
Reply: MET

Query: API: above_or_equal(metric=folding stability dG unfold, cutoff=1 kcal/mol) for item SAGGEWHEISIKFPNPEEIEEALREAFPPGMDVDPDVEPNPNGWEVEIEVPRNNPDRVQNAIKEALDSAGGS [r16_43_TrROS]
Reply: NOT MET

Query: Evaluate SAGGSAGGSAGMTPVEITDPNSDKTYTYDPEKKTLTKYYPGEGKTETFPLTSEEEAKKLLSAGGSAGGSAGG [r11_936_JUSTAS] : folding stability dG unfold at minimum 1 kcal/mol?
Reply: NOT MET

Query: Check the entry SAMKIYVAPGPFTVTARPALPGGEEITITTPITPEQVADPAFLEALVQALEDAGVPATYSILPAGVALPSAG [r14_60_JUSTAS] : does folding stability dG unfold equal or exceed 1 kcal/mol?
Reply: NOT MET

Query: Entry SAGGSAGGSGGFLVLEFEIEVDPEDPEKALAVVEALVESLGFEPVLIEVEEDENRVRVRVLLGSAGGSAGGS [r12_731_TrMRF] : is its folding stability dG unfold no less than 1 kcal/mol?
Reply: MET

Query: Decide: is the reported value of folding stability dG unfold for SAGEKEFEIVEVKVNKETNEVYFLVRDKEKNRLIKVHSNGTVEIYDLKDPGKKITINMSLEELLALLKKSAG [r5_491_TrROS_Hall] equal to or greater than 1 kcal/mol?
Reply: MET

Query: Identify whether the reported folding stability dG unfold of the following sequence is 1 kcal/mol or greater: SAGMLRVDIEIPPAFRKMLKNAPPGETVMFELPIKIKIEYYQPDGGKPEPKEHEQPFPVQFMVVLPPDGSAG [r5_946_TrROS]
Reply: MET

Query: Entry SAGGSAGGSGMERVEAVREALVPGDPDAVPAPITYDPQTGKLTYSVSDPRVAAALAADPLVSLSAGGSAGGS [r12_623_JUSTAS] : is its folding stability dG unfold no less than 1 kcal/mol?
Reply: NOT MET

Query: Could you please find out whether SAGGKKKKPKKKIKIKIVKVEKKYDKKTGKLKEVRIEIEIEAESEEEAKKLAEELAKKLNIEVEVKKKSAGG [r13_606_TrROS_Hall] has folding stability dG unfold that meets 1 kcal/mol or exceeds it?
Reply: MET
